# reported MIC; entries follow
- System: Escherichia coli
- measurementDescription: Potentiation of erythromycin-induced antibacterial activity against wild type Escherichia coli BW25113 assessed as erythromycin MIC at 256 ug/ml incubated for 18 hrs under aerobic condition by checkerboard titration assay (reference value: 128 ug/ml)
- Type: functional
- studyConditions: dose 256 µg/ml
The answer is to be given in µg/mL; state only the numeric part.

Observe how each entry below is paired with its result.
| smilesRecord | MIC [µg/mL] |
| --- | --- |
| CC(C)CCOc1cc(C(=O)Nc2ccccc2C(F)(F)F)cc2ccccc12 | 32 |
| CCCCCCNC(=O)c1cc(OCc2ccccc2)c2ccccc2c1 | 128 |

Kindly note the recorded MIC for `CCCNC(=O)c1cc(OCCC(C)C)c2ccccc2c1` , which is 16

Kindly note the recorded MIC for `COc1ccc(CNC(=O)c2cc(OCc3ccccc3)c3ccccc3c2)cc1` , which is 128

Kindly note the recorded MIC for `CC(C)CCOc1cc(C(N)=O)cc2ccccc12` , which is 64

Kindly note the recorded MIC for `CCCNC(=O)c1cc(OCc2ccccc2)c2ccccc2c1` , which is 128

###

# reported MIC; entries follow
- System: Escherichia coli
- measurementDescription: Potentiation of erythromycin-induced antibacterial activity against wild type Escherichia coli BW25113 assessed as erythromycin MIC at 256 ug/ml incubated for 18 hrs under aerobic condition by checkerboard titration assay (reference value: 128 ug/ml)
- Type: functional
- studyConditions: dose 256 µg/ml
The answer is to be given in µg/mL; state only the numeric part.

Observe how each entry below is paired with its result.
| smilesRecord | parameter | reportedMeasurement |
| --- | --- | --- |
| O=C(Nc1ccccc1)c1cc(OCc2ccccc2)c2ccccc2c1 | MIC | 128 |
| O=C(NCc1ccccc1Cl)c1cc(OCc2ccccc2)c2ccccc2c1 | MIC | 64 |
| C#CCNC(=O)c1cc(OCCC(C)C)c2ccccc2c1 | MIC | 128 |
| O=C(NC1CCCCC1)c1cc(OCc2ccccc2)c2ccccc2c1 | MIC | 64 |
| NC(=O)c1cc(OCCNCc2ccc(O)cc2)c2ccccc2c1 | MIC | 128 |

Kindly note the recorded MIC for `NC(=O)c1cc(OCCSc2nc3ccccc3[nH]2)c2ccccc2c1` , which is 128

Kindly note the recorded MIC for `COc1ccc(CNC(=O)c2cc(OCCC(C)C)c3ccccc3c2)cc1` , which is 32

Kindly note the recorded MIC for `CC(C)CCOc1cc(C(=O)NCc2ccco2)cc2ccccc12` , which is 32

Kindly note the recorded MIC for `CC(C)CCOc1cc(C(=O)NCc2ccccc2)cc2ccccc12` , which is 32

Kindly note the recorded MIC for `CC(C)CCOc1cc(C(=O)NCc2ccccc2Cl)cc2ccccc12` , which is 128

Kindly note the recorded MIC for `NC(=O)c1cc(OCCN2CCN(c3ccccc3)CC2)c2ccccc2c1` , which is 128

###

# reported MIC; entries follow
- Tested on: Escherichia coli
- measurementDescription: Potentiation of chloramphenicol-induced antibacterial activity against AcrB deficient Escherichia coli BW25113 assessed as chloramphenicol MIC at 256 ug/ml incubated for 18 hrs under aerobic condition by checkerboard titration assay (reference value: 2 ug/ml)
- Type: functional
- studyConditions: dose 256 µg/ml
The answer is to be given in µg/mL; state only the numeric part.

Observe how each entry below is paired with its result.
| smilesRecord | reportedMeasurement |
| --- | --- |
| C#CCNC(=O)c1cc(OCCC(C)C)c2ccccc2c1 | 2 |
| CC(C)NCCOc1cc(C(N)=O)cc2ccccc12 | 2 |
| CC(C)CCOc1cc(C(=O)NCc2ccccc2)cc2ccccc12 | 1 |

Kindly note the recorded MIC for `NC(=O)c1cc(OCCSc2nc3ccccc3[nH]2)c2ccccc2c1` , which is 2

Kindly note the recorded MIC for `NC(=O)c1cc(OCCNCc2ccc(O)cc2)c2ccccc2c1` , which is 2

Kindly note the recorded MIC for `NC(=O)c1cc(OCCOc2ccccc2N)c2ccccc2c1` , which is 2

Kindly note the recorded MIC for `CCCNC(=O)c1cc(OCCC(C)C)c2ccccc2c1` , which is 1

###

- Test system: Escherichia coli
- measurementDescription: Potentiation of erythromycin-induced antibacterial activity against wild type Escherichia coli BW25113 assessed as fold reduction in erythromycin MIC at 128 ug/ml incubated for 18 hrs under aerobic condition by checkerboard titration assay relative to erythromycin MIC alone
- Assay type: functional
- studyConditions: dose 128 µg/ml
parameter: fold change (FC)

Observe how each entry below is paired with its result.
| smilesRecord | reportedMeasurement |
| --- | --- |
| CC(C)NCCOc1cc(C(N)=O)cc2ccccc12 | 8 |
| NC(=O)c1cc(OCCNC2CCCCC2)c2ccccc2c1 | 8 |
| CCCNC(=O)c1cc(OCCC(C)C)c2ccccc2c1 | 4 |
| CC(C)CCOc1cc(C(=O)NCc2ccccc2Cl)cc2ccccc12 | 4 |

Kindly note the recorded fold change (FC) for `CC(C)CCOc1cc(C(=O)NC2CCCCC2)cc2ccccc12` , which is 8

###

- Tested on: Cell membrane
- measurementDescription: Induction of outer membrane permeabilization in wild type Escherichia coli BW25113 assessed as increase in nitrocefin hydrolysis at 512 ug/ml measured for 30 mins in presence of CCCP by spectrophotometry analysis
- Format: subcellular
- studyConditions: dose 512.0 µg/ml
The source made the active and inactive calls. No cut-off for these calls is given here.
Reply using exactly one outcome from active, inactive

| smilesRecord | classAssignment |
| --- | --- |
| CC(C)CCOc1cc(C(=O)Nc2ccccc2C(F)(F)F)cc2ccccc12 | inactive |
| CCCCCCNC(=O)c1cc(OCc2ccccc2)c2ccccc2c1 | active |
| O=C(NCc1ccco1)c1cc(OCc2ccccc2)c2ccccc2c1 | inactive |
| CC(C)CCOc1cc(C(=O)NCc2ccccc2)cc2ccccc12 | inactive |
| CCCNC(=O)c1cc(OCc2ccccc2)c2ccccc2c1 | inactive |

Lab note: next compound to report on.
Prompt line: Per the records of this test, what outcome belongs to `CCCNC(=O)c1cc(OCCC(C)C)c2ccccc2c1` ?
Response line: inactive

###

- Tested on: Escherichia coli
- measurementDescription: Potentiation of erythromycin-induced antibacterial activity against wild type Escherichia coli BW25113 assessed as erythromycin MIC at 256 ug/ml incubated for 18 hrs under aerobic condition by checkerboard titration assay (reference value: 128 ug/ml)
- Type: functional
- studyConditions: dose 256 µg/ml
parameter: MIC (µg/mL)
The answer is to be given in µg/mL; state only the numeric part.

Kindly note the recorded MIC for `CC(C)NCCOc1cc(C(N)=O)cc2ccccc12` , which is 16

Kindly note the recorded MIC for `CC(C)CCOc1cc(C(=O)NCCc2ccccc2)cc2ccccc12` , which is 32

###

- Test system: Cell membrane
- measurementDescription: Induction of outer membrane permeabilization in wild type Escherichia coli BW25113 assessed as increase in nitrocefin hydrolysis at 512 ug/ml measured for 30 mins in presence of CCCP by spectrophotometry analysis
- Assay type: subcellular
- studyConditions: dose 512.0 µg/ml
Activity calls are given as the source filed them. The rule behind the calls is not given here.
Reply using exactly one outcome from Y (active), N (inactive)

// known answers, use as guide
| smilesRecord | classAssignment |
| --- | --- |
| NC(=O)c1cc(OCCNCc2ccc(O)cc2)c2ccccc2c1 | N |
| NC(=O)c1cc(OCCNCc2ccco2)c2ccccc2c1 | Y |
| NC(=O)c1cc(OCCSc2nc3ccccc3[nH]2)c2ccccc2c1 | N |
| CC(C)NCCOc1cc(C(N)=O)cc2ccccc12 | N |
| O=C(NCc1ccccc1Cl)c1cc(OCc2ccccc2)c2ccccc2c1 | Y |
| O=C(Nc1ccccc1)c1cc(OCc2ccccc2)c2ccccc2c1 | Y |
| CC(C)CCOc1cc(C(=O)NC2CCCCC2)cc2ccccc12 | N |
| CC(C)CCOc1cc(C(=O)NCCc2ccccc2)cc2ccccc12 | N |

Prompt line: Per the records of this test, what outcome belongs to `CC(C)CCOc1cc(C(=O)NCc2ccco2)cc2ccccc12` ?
Response line: N

Prompt line: Per the records of this test, what outcome belongs to `NC(=O)c1cc(OCCOc2ccccc2N)c2ccccc2c1` ?
Response line: Y

Prompt line: Per the records of this test, what outcome belongs to `NC(=O)c1cc(OCCNC2CCCCC2)c2ccccc2c1` ?
Response line: Y

Prompt line: Per the records of this test, what outcome belongs to `COc1ccc(CNC(=O)c2cc(OCc3ccccc3)c3ccccc3c2)cc1` ?
Response line: Y

Prompt line: Per the records of this test, what outcome belongs to `CC(C)CCOc1cc(C(=O)NCc2ccccc2Cl)cc2ccccc12` ?
Response line: N

Prompt line: Per the records of this test, what outcome belongs to `NC(=O)c1cc(OCCN2CCN(c3ccccc3)CC2)c2ccccc2c1` ?
Response line: N

###

- Test system: Escherichia coli
- measurementDescription: Potentiation of chloramphenicol-induced antibacterial activity against wild type Escherichia coli BW25113 assessed as fold reduction in chloramphenicol MIC at 128 ug/ml incubated for 18 hrs under aerobic condition by checkerboard titration assay relative to chloramphenicol MIC alone
- Format: functional
- studyConditions: dose 128 µg/ml
parameter: fold change (FC)
Note: the reply should be a number with no unit written.

| smilesRecord | systemName | fold change (FC) |
| --- | --- | --- |
| CC(C)CCOc1cc(C(=O)NCc2ccccc2Cl)cc2ccccc12 | Escherichia coli | 4 |
| NC(=O)c1cc(OCCNC2CCCCC2)c2ccccc2c1 | Escherichia coli | 8 |
| CCCNC(=O)c1cc(OCCC(C)C)c2ccccc2c1 | Escherichia coli | 4 |

Field: next compound
Kindly note the recorded fold change (FC) for `CC(C)CCOc1cc(C(=O)NC2CCCCC2)cc2ccccc12` , which is 8
